organism: Canis familiaris; experiment: In vitro activity in isolated canine cardiac Purkinje fibers given as maximum change in APD95 from control value at 100 uM of concentration; assay type: functional, Canis lupus familiaris, Purkinje fiber
attribute_measured: APD95

{"columns": ["compound", "attribute_measured", "result"],
 "data": [
  ["CC(C)NCC(O)c1ccc(NS(C)(=O)=O)cc1 (stereo not drawn) [SOTALOL]", "APD95", "48%"],
  ["CC1=NCCN1CC(O)c1ccc(NS(C)(=O)=O)cc1.Cl (stereo not drawn)", "APD95", "63%"],
  ["CC1=NCCN1CC(=O)c1ccc(NS(C)(=O)=O)cc1", "APD95", "74%"],
  ["CC(C(O)c1ccc(NS(C)(=O)=O)cc1)n1cc[n+](C)c1.[Cl-] (stereo not drawn)", "APD95", "36%"],
  ["Cc1n2c(c[n+]1C)C(c1ccc(NS(C)(=O)=O)cc1)CCC2.[I-] (stereo not drawn)", "APD95", "27%"],
  ["C[n+]1ccn(/C=C/c2ccc(O)cc2)c1.[Br-]", "APD95", "27%"],
  ["CC(C(=O)c1ccc(NS(C)(=O)=O)cc1)n1cc[n+](C)c1.[Cl-] (stereo not drawn)", "APD95", "65%"],
  ["C[n+]1ccn(CCc2ccc(O)cc2)c1.[Cl-]", "APD95", "20%"],
  ["Cn1cc[n+](C)c1C(O)c1ccc(NS(C)(=O)=O)cc1.[I-] (stereo not drawn)", "APD95", "37%"],
  ["CS(=O)(=O)Nc1ccc(C(=O)C[n+]2ccsc2)cc1.[Cl-]", "APD95", "80%"],
  ["Cc1n2c(c[n+]1C)C(c1ccc(NS(C)(=O)=O)cc1)=CCC2.[I-]", "APD95", "38%"],
  ["C[n+]1ccn(CC(C)(O)c2ccc(NS(C)(=O)=O)cc2)c1.[Cl-] (stereo not drawn)", "APD95", "71%"],
  ["C[n+]1ccn(CC(O)c2ccc(NS(C)(=O)=O)cc2)c1.[Cl-] (stereo not drawn)", "APD95", "50%"]
]}
